Tested on: MYO3B;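 further: KINOMEscan scanMAX binding as percent activity remaining versus control; lower means stronger binding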
applied-conditions: Compound Concentration (nM):1000
result-type: Percent Control (%)

[[record]]
compound = "CN(C)c1cc2c(Nc3ccc4c(cnn4Cc4ccccc4)c3)ncnc2cn1 [GW282974X]"
reported = 99

[[record]]
compound = "CN1CCN(C(=O)c2ccc(NC(=O)Nc3ccc(N(C)c4ccnc(Nc5ccc(CS(C)(=O)=O)cc5)n4)cc3)cc2)CC1.Cl [GW830263A]"
reported = 23

[[record]]
compound = "CC1=C(C(=O)Nc2ccc3[nH]ncc3c2)C(c2ccc(Cl)c(Cl)c2)CC(=O)N1 (stereo not drawn) [GSK299115A]"
reported = 90

[[record]]
compound = "COC(=O)Nc1nc2ccc(Oc3ccc(NC(=O)Nc4cc(C(F)(F)F)ccc4F)cc3)cc2s1.Cl [GW693917A]"
reported = 100

[[record]]
compound = "COc1cc2ncn(-c3cc(O[C@H](C)c4ccccc4Cl)c(C(N)=O)s3)c2cc1OC [GSK237701A]"
reported = 100

[[record]]
compound = "CCS(=O)(=O)c1ccc(OC)c(Nc2ncc(-c3cccc(OC)c3)o2)c1 [GW580509X]"
reported = 100

[[record]]
compound = "CC1=C(C(=O)Nc2ccc3[nH]ncc3c2)C(c2ccc3ccccc3c2)CC(=O)N1 (stereo not drawn) [GSK270822A]"
reported = 100

[[record]]
compound = "C/C(Nc1ccc(S(N)(=O)=O)cc1)=C1/C(=O)Nc2ccccc21 [GW335962X]"
reported = 100

[[record]]
compound = "COc1cc(C=NNc2ncnc3c2cnn3-c2ccccc2)ccc1O [GW513184X]"
reported = 95

[[record]]
compound = "NS(=O)(=O)c1ccc(N/N=C2\\C(=O)Nc3ccc(C(=O)NCc4ccncc4)cc32)cc1 [GW300657X]"
reported = 100

[[record]]
compound = "CCS(=O)(=O)c1ccc(OC)c(Nc2ncc(-c3cccc(F)c3)o2)c1 [GW621970X]"
reported = 100

[[record]]
compound = "COc1cc(C)c(N(C)C(=O)CN(C)C)cc1Nc1nc(Nc2cccc(F)c2C(N)=O)c2cc[nH]c2n1"
reported = 100

